# method summary: Volume of distribution at steady state in beagle dog at 1 mg/kg, iv
# Format: ADME, organism-based, Canis lupus familiaris
# experimental context: beagle, in vivo, read-out: Vdss

compound: Nc1nc(O[C@H](c2ccc(Cl)cc2-c2ccccc2)C(F)(F)F)cc(N2CCC3(CC2)CN[C@H](C(=O)O)C3)n1
unit: L/kg
Vd: 0.24

----------
# method summary: Clearance in beagle dog at 1 mg/kg, iv
# Type: ADME, organism-based, Canis lupus familiaris
# experimental context: in vivo

compound: Nc1nc(O[C@H](c2ccc(Cl)cc2-c2ccccc2)C(F)(F)F)cc(N2CCC3(CC2)CN[C@H](C(=O)O)C3)n1
clearance [mL/min/kg]: 1.2
